Origin of values: patent US20190092852A1

# target-under-test: T1, cyno IL-33 (construct not stated) (cynomolgus monkey, UniProt A0A2K5W3I1 112-269)
# T1 construct: also called cynomolgus IL-33; cyno IL-33 (Genentech)
# T1 sequence: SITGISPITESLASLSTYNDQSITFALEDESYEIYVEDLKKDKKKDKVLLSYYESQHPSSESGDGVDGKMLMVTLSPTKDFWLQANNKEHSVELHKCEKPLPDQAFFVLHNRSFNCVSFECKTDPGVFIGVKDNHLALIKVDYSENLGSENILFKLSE
# protocol-text: SPR Biacore
pKd: −log10 of the molar value.
Reported pKd values follow for various binders

{"binder": "9F6 (antibody, V domains shown, Murine hybridoma clone (Balb/C)) VH: QVQLQQSGNDLVKPGASVKLSCKASGYTFTSYWINWIKQRPGQGLEWIGRIAPGSGFISYNELFKDKATLTVDTSSSTAYIQLGSLSSEDSAVYFCAREFYYGSFYGGFAYWGQGTLVTVSA VL: DIQMNQSPSSLSASLGDTITITCHASQNIHVWLSWYQQKPGNIPKLLIYKASTLHTGVPSRFNGSGSGTGFTLTISSLQPEDIATYYCQQGQSSPLTFGAGTKLEVK", "pKd": 9.04}
{"binder": "101.B11 (antibody, V domains shown, Transgenic mouse / phage display) VH: QVQLVQSGGGLVQPGGSLKLSCAASGFTFSGSAMHWVRQASGKGLEWVGRIRSRNNNYATAYAASVKGRFTISRDDSKRTTYLQMNSLKTEDTAVYYCTRLQQPPFDYWGQGTLVTVSS VL: DIQMTQSPSSLSASVGDRVTITCRASQGIRNDLDWYQQKPGKAPKRLIYAASSLQSGVPSRFNGSGSGTEFTLTISSLQPEDFATYYCLQHDSYPLTFGGGTKVEIK", "pKd": 9.11}
{"binder": "2B6 (antibody, V domains shown, Murine hybridoma clone (Balb/C)) VH: EVLLQQSGPELVKPGASVKISCNASGYTFSDYNMNWVKQSHGKSLESIGDINPKNGDTFYNQNFKDKATLTIDKSSSTVYMELRSLTSEDTAMYYCARHYYYGSSYGGFVYWGQGTLVTVAA VL: DIQMNQSPSSLSASLGDTITITCHASQNINVWLSWYQQKAGNNPKLLIYAASKLHTGVPSRFTGSGSGTLFTLTISSLQPEDIATYYCQQGQSYPLTFGSGTNLELK", "pKd": 9.48}
{"binder": "10C12.38.H6.87Y.58I (antibody, V domains shown) VH: EVQLVESGGGLVQPGGSLRLSCAASGFTFSSFSMSWVRQAPGKGLEWVATISGGKTFTDYVDSVKGRFTISRDDSKNTLYLQMNSLRAEDTAVYYCTRANYGNWFFEVWGQGTLVTVSS VL: EIVLTQSPATLSLSPGERATLSCRASESVAKYGLSLLNWFQQKPGQPPRLLIFAASNRGSGIPARFSGSGSGTDFTLTISSLEPEDFAVYYCQQSKEVPFTFGQGTKVEIK", "pKd": 10.43}
{"binder": "10H2 (antibody, V domains shown, Murine hybridoma clone (Balb/C)) VH: EVKLEESGGGLVQPGGSMKLSCVASGFTFSNYWMNWVRQSPEKGLEWMAEITLKFNNYSTHYAESVKGRFSISRDDSKSTVYLQMNNLRAEDTGIYYCARRNYGDWYINVWGAGTTVTVSS VL: DIVLTQSPTSLAVSLGQRATISCRASESVDKFGMSFLNWFQQKPGQPPKLLIFVASSQGSGVPARFSGSGSGTDFSLNIHPVEEDDTAMYFCQQSKDIPYTFGGGTKLEIK", "pKd": 10.05}
{"binder": "10C12 (antibody, V domains shown, Murine hybridoma clone from IL33 KO mouse) VH: DVNLVESGGGSVKPGGSLKLSCVASGFTFSSFSMSWVRQTPEKRLEWVATISGGKTFTDYVDSVKGRFTISRDDAKNTLYLQMSSLESEDTAMYYCTRANYGNWFFEVWGAGTTVAVSS VL: DIVLTQSPGFLVVSLGQRATISCRASESVAKYGLSLLNWFQQKPGQPPKLLIFAASNRGSGVPARFSGSGSGTDFSLNIHPMEEDDTAMYFCQQSKEVPFTFGSGTKLEIK", "pKd": 10.15}
{"binder": "4G12.FW4 (antibody, V domains shown, Derivative of 4G12) VH: ELQLQESGPGLVKPSETLSLTCTVSGGSIRSSIFYWGWIRQPPGKGLEWIGSIYYSGRTYYNPSLKSRVTISVDTSKNQFSLMLTSVTAADTAVYYCARAGGLYNWNDESFSFYMDVWGQGTTVTVSS VL: EIVLTQSPGTLSLSPGERATLSCRASQSFSSSYLAWYQQKPGQAPRLLIYGASSRATGIPDRFSGSGSGTDFTLTISRLEPEDFAVYYCQQYDRSPLTFGGGTKVEIK", "pKd": 10.15}
